SYSTEM: Cellular tumor antigen p53 (Homo sapiens)
ASSAY_EXPLANATION: Primary qHTS for small molecule compounds that upregulate eGFP-tagged delta133p53alpha (in N-terminal) cells. (AID 2060322);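 note: cells pre-induced with doxycycline then dosed without doxycycline; 0% = DMSO vehicle and 100% = reference activator; nearly all actives have a fitted effect of over 75% in size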
EXPERIMENTAL_CONTEXT: NCI-H358 eGFP-delta133p53alpha fluorescence, 24 h; hits give high values
Inconclusive results are not listed.
REPORTED_METRIC: activation (%)
Provide only the numeric value, understood in %.

Known results for compounds:
CC1(c2ccccc2)OC(C(=O)O)=CC1=O (configuration not stated) | 26.8
COc1cc(C)c(C(=O)O[C@@H]2[C@H](O)[C@@H](CO)O[C@H]2n2ccc(=O)[nH]c2=O)c(OC)c1 | -5.34
C=C1CC[C@@H]2[C@@](C)(CO[C@@H]3O[C@H](CO)[C@@H](O)[C@H](O)[C@H]3O)[C@H](O)CC[C@@]2(C)[C@@H]1CC/C(C)=C/CO[C@@H]1O[C@H](CO)[C@@H](O)[C@H](O)[C@H]1O | 23.2
C/C(=C\c1ccc(C(=O)O)cc1)c1ccc2c(c1)C(C)(C)CCC2(C)C | -14.6
CCCC(O)C(CC)CO (configuration not stated) | 6.21

Summary for this compound, COC(=O)Cc1cc2c(c([N+](=O)[O-])c1)N(C(=O)CC[C@H](N)C(=O)O)CC2 : activation is -7.67

Looking up CO[C@@H](Cc1ccc(OCCc2nc(-c3ccccc3)oc2C)c2ccsc12)C(=O)O , I see its activation listed as -6.25

* * *

ASSAY_EXPLANATION: BET inhibitor-based combinations targeting novel dependencies in MECOM-rearranged (r) AML: HNT-34 cell line (AID 2202234); note: nearly all actives have a fitted effect of over 35% in size
EXPERIMENTAL_CONTEXT: HNT-34 AML viability, CellTiter-Glo luminescence, 48 h; series mostly up to 46 µM
Inconclusive results are not listed. Calls of active or inactive are those of the source. The call rests on the fitted dose curve; in most records, active means well fitted inhibition curve with a large enough effect; inconclusive means small, poorly fitted or top-dose-only effect; inactive means no such curve, though single readings can be large or run the other way.
Permitted responses: class 1 = active, class 0 = inactive

Examples from the recorded data:
CN(Cc1cc(Br)cc(Br)c1N)C1CCCCC1 | class 0
Cc1ccc(S(=O)(=O)N[C@@H](Cc2ccccc2)C(=O)CCl)cc1 | class 1

Continue with the molecule presented below.
Tell me the recorded outcome of this test for CCN1CCN(C(=O)N[C@@H](C(=O)N[C@@H]2C(=O)N3C(C(=O)O)=C(CSc4nnnn4C)CS[C@H]23)c2ccc(O)cc2)C(=O)C1=O .
class 0

* * *

SYSTEM: Retinaldehyde dehydrogenase 3 (Homo sapiens) (UniProt P47895)
ASSAY_EXPLANATION: qHTS for Inhibitors of the Aldehyde Dehydrogenase Family (ALDH1A3) Confirmatory screens (AID 2061311); note: % is set by controls: 0 for no effect and ±100 for the full control effect; nearly all actives have a fitted effect of over 60% in size
EXPERIMENTAL_CONTEXT: ALDH inhibition qHTS; series mostly up to 46 µM
Records with an inconclusive call do not appear. Active and inactive are the calls of the source. The call rests on the fitted dose curve; in most records, active means well fitted inhibition curve with a large enough effect; inconclusive means small, poorly fitted or top-dose-only effect; inactive means no such curve, though single readings can be large or run the other way.
REPORTED_METRIC: outcome

N#Cc1nc(NCCO)nc(Nc2ccccc2)n1 | inactive
c1cncc(CNc2ncnc3ccc(-c4ccoc4)cc23)c1 | inactive
Cc1cccc(CNc2ccnc(-c3cccc4ccccc34)n2)c1 | inactive
